Experiment: in vitro
Conditions: both, human, s9, pH 7.4, CLint −NADPH
quantityName: CLint scaled at 1 μM (mL/min/kg)
I only need the number, in mL/min/kg, no unit after it.

Complete the entry with CLint scaled at 1 μM for Nc1nc(OCc2ccccc2)c2[nH]cnc2n1 [O^6-benzylguanine]
14.8

---

Assay: in vitro
Conditions: male, rhesus monkey, s9, pH 7.4, CLint +NADPH
quantityName: CLint scaled at 1 μM (mL/min/kg)
Your answer should be a plain number; it is taken to be in mL/min/kg.

Query CLint scaled at 1 μM for Nc1nc(OCc2ccccc2)c2[nH]cnc2n1
19.5

---

Reported Fm,AO Method A (fraction metabolized by AO) values for a set of molecules
Assay: Incubations with minipig hepatic S9
Conditions: minipig hepatic S9; method A (eq. 4)
// response body must contain only the number

As a guide, the following entries are already answered.
Recall and state the measured Fm,AO Method A (fraction metabolized by AO) for N=C(N)NC(=O)c1cnn(-c2cccc3ncccc23)c1C1CC1 [Zoniporide] .
0.83

Query Fm,AO Method A (fraction metabolized by AO) for CN1CCC(Nc2ncc3ncnc(Nc4ccc(F)c(Cl)c4)c3n2)CC1 [BIBX1382]
0.85

Identify the reported Fm,AO Method A (fraction metabolized by AO) for the following entry. CCN(C(C)=O)c1cccc(-c2ccnc3c(C#N)cnn23)c1 [Zaleplon, zaleplon]
0.17

For the next question, use this molecule.
For the molecule Cn1cc(-c2ccc3nnc(Sc4ccc5ncccc5c4)n3n2)cn1 [SGX523] , report Fm,AO Method A (fraction metabolized by AO).
0.18
